Below, each entry is listed with its recorded pIC50.
Molecular target: AKT1 WT (Homo sapiens, UniProt P31749)
Sequence (P31749 whole entry): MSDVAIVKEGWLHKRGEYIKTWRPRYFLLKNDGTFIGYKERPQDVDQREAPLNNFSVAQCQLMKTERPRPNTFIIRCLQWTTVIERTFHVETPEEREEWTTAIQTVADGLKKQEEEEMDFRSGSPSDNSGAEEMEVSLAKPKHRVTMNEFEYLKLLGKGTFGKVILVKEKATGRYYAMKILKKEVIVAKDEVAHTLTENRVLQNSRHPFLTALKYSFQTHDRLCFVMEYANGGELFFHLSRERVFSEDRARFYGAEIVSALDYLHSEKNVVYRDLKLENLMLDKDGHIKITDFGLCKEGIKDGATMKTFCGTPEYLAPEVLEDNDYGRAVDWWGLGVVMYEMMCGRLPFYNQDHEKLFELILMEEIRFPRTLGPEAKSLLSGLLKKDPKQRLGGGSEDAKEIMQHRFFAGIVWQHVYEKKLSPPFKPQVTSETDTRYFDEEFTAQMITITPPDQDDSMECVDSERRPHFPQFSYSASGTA
Assay: Live cell target engagement by NanoBRET competitive probe displacement, AKT1 WT
Conditions: transfected HEK293 cells, 2 h at 37° C., read-out: AKT1 WT IC50: GeoMean IC50
pIC50: −log10 of the molar value.

Solved entries (count: 2):
>>> assay_value("Cn1ncc(-c2ccc3nc(-c4cccnc4N)n(-c4ccc5c(c4)CC[C@@H]5NC(=O)c4ccc(O)c(C=O)c4)c3n2)n1")
"7.00 to 8.00"
>>> assay_value("CS(=O)(=O)Nc1ccc(C(=O)N[C@H]2CCc3cc(-n4c(-c5cccnc5N)nc5ccc(-n6cccn6)nc54)ccc32)cc1C=O")
"7.00 to 8.00"

Next, consider the following compound.
# return recorded pIC50 for entry "Nc1ncccc1-c1nc2ccc(-c3cn[nH]c3)nc2n1-c1ccc2c(c1)CC[C@@H]2NC(=O)c1ccc(O)c(C=O)c1"
5.70 to 7.00
